Origin of measurements: patent US7786083B2

Tested on: metastin receptors
assay.remarks: Measurement of agonist activity by assaying changes in intracellular calcium ion level (FLIPR, Fluo-4 NW)
Assay type: cell-based, human
test.parameters: specific activity of the EC50 of a test compound based on the EC50 of Metastin (45-54), metastin receptor expression CHO cells
Experimental: 1) Preparation of Human Metastin and Rat Metastin Stable Expression Cell Lines Human metastin and rat metastin stable expression cell lines were obtained by transfecting the expression plasmid for animal cells into CHO/dhfr^− cells using CellPhect Transfection Kit (manufactured by GE Healthcare). First, 240 μL of Buffer A (attached to CellPhect Transfection Kit) was added to 9.6 μg of plasmid DNA dissolved in 240 μL of distilled water followed by stirring. […]
*1 amine or outer side, *2 acyl side, *3 side chain or, on linkers, in order; H or OH if unused. Where a SMILES comes first, the peptide text is derived from it. [ ]: non-standard residue; d: D form. Glyψ(E-CHCH)Leu = CC(C)C[C@H](/C=C/CN[*:1])C(=O)[*:2]; X3 = O=C(CC[C@@H](O)[C@H](Cc1ccccc1)N[*:1])[*:2]; Arg(Me) = CNC(=N)NCCC[C@H](N)C(=O)O; Dap(CONH2) = NC(=O)NC[C@H](N)C(=O)O; Hyp = O=C(O)[C@@H]1C[C@@H](O)CN1; Cha = N[C@@H](CC1CCCCC1)C(=O)O
test.readout: Specific Activity
// return a plain number; no unit text

// sample CNC(=N)NCCC[C@H](NC(=O)[C@@H](/C=C/CNC(=O)[C@H](CC1CCCCC1)NC(=O)[C@@H](NC(=O)[C@H](CC(N)=O)NC(=O)[C@@H]1C[C@@H](O)CN1C(=O)[C@@H](Cc1ccc(O)cc1)NC(C)=O)[C@@H](C)O)CC(C)C)C(=O)N[C@@H](Cc1c[nH]c2ccccc12)C(N)=O [Compound No. 902] (Ac-[dY][Hyp]NT[Cha][Glyψ(E-CHCH)Leu][Arg(Me)]W-NH2) , its Specific Activity was 0.6

// Specific Activity lookup, molecule = CC(=O)N[C@H](Cc1ccc(O)cc1)C(=O)N1C[C@H](O)C[C@H]1C(=O)N[C@@H](CNC(N)=O)C(=O)N[C@H](C(=O)N[C@@H](CC1CCCCC1)C(=O)NC/C=C/[C@@H](CC(C)C)C(=O)N[C@@H](CCCNC(=N)N)C(=O)N[C@@H](Cc1c[nH]c2ccccc12)C(N)=O)[C@@H](C)O [Compound No. 927] (Ac-[dY][Hyp][Dap(CONH2)]T[Cha][Glyψ(E-CHCH)Leu]RW-NH2) , result: 0.5

Specific Activity measured on CNC(=N)NCCC[C@H](NC(=O)[C@H](CC(C)C)NC(=O)CC[C@@H](O)[C@H](Cc1ccccc1)NC(=O)[C@@H](NC(=O)[C@H](CC(N)=O)NC(=O)[C@@H]1C[C@@H](O)CN1C(=O)[C@@H](Cc1ccc(O)cc1)NC(C)=O)[C@@H](C)O)C(=O)N[C@@H](Cc1c[nH]c2ccccc12)C(N)=O [Compound No. 867] (Ac-[dY][Hyp]NT[X3]L[Arg(Me)]W-NH2) = 0.8
